Reference source for all entries: patent US20220251215A1

Target: HLA-A2 on T2 cells pulsed with EARS2: 306-314 peptide (human)
Test: flow cytometry, 10 ug/ml, pulsed T2 cells
READOUT_TYPE: ratio of MFI, pulsed to unpulsed (ratio)
Write the number in ratio without appending the unit.

# input Return ratio of MFI, pulsed to unpulsed (reported value) for this binder: mAb28037P2 (antibody, human IgG4 S228P, kappa, V domains shown) VH: QVQLQESGPGLVKPSETLSLTCTVSGDSISVYYWTWIRQPPGKGLEWIGYVHYTGYTNYNPSLKSRVTMSVDTAKKQISLKVRSVTAADTAVYYCARTIPAAAHYYHGTDVWGPGTTVTVSS VL: DIQMTQSPSSLSASVGDRVTITCQANQDIRKYLNWYQQKSGKAPTLLIYEASNLETGAPSTFSGSGSGTEFTFTISSLRPEDIATYYCQQYESLPLTFGGGTKVEIKR
# output 0.6

# input Entry mAb24959N (antibody, human IgG4 S228P, kappa, V domains shown) VH: QLQLLESGPGLVKPSETLSLICTVSGGSIRGSSYYWGWIRQPPEKGLEWIGSIYSSGSTYYNPSLKSRVTISADTSKNQFSLKLSSVTAADTAVYYCARHGGITAVQLEFDPWGQGTLVTVSS VL: DIQMTQSPSSLSASVGDRVTITCQASQDISNYLKWYQQKPGKAPKILIHDASNLEIGVPSRFSGSGAGTDFIFTISSLQPEDIGTYYCQQYDNLPITFGQGTRLEIKR needs its ratio of MFI, pulsed to unpulsed filled in; supply it.
# output 0.6

# input Input mAb29814P (antibody, human IgG4 S228P, kappa, V domains shown) VH: QVQLVESGGGVVQPGRSLRLSCVASGFTFSSYGMHWVRQAPGKGLEWVAVIWYVGSNKYYGDSVKGRFTISRDNSKNTLYLQMNSLRAEDTAVYYCARDLIADRPGYYYNGMDVWGQGTTVTVSS VL: EIVMTQSPVTLFVSPGERATLSCRASQSVNTNLAWYQQQPGQAPRLLIHGASTRPTGVPARFSGSGSGTEFTLIISSLQSEDFAVYYCQQYNNWPPWTFGQGTKVEIKR , output reported ratio of MFI, pulsed to unpulsed.
# output 0.6

# input Output ratio of MFI, pulsed to unpulsed of mAb28128P (antibody, human IgG4 S228P, kappa, V domains shown) VH: EVQLVESGGGVVQPGGSLRLSCAASGFIFDDYAMHWVRQVPGKGLEWISLSSGGGGGTYYADPVKGRFTISRDNSKNSLHLQMNSLRAEDTASYYCAKDMVFGVVTPDFFFAMDVWGQGTTVTVSS VL: DIQMTQSPSSLSASVGDRVTITCRASQSISTYLNWYQQKPGKAPKLLIYGASSLQRGVPSRFSGSGSGTDFTLTISSLQPEDFATYYCQQTYSTPPITFGQGTRLEIKR
# output 0.6
